# tgt: α2 subtype containing GABA-A receptors (Homo sapiens, UniProt P18507+P47869)
# Construct: expressed in transfected cells; host or cells: Xenopus laevis oocytes, cRNA injected
# Sequence (P47869 29-451): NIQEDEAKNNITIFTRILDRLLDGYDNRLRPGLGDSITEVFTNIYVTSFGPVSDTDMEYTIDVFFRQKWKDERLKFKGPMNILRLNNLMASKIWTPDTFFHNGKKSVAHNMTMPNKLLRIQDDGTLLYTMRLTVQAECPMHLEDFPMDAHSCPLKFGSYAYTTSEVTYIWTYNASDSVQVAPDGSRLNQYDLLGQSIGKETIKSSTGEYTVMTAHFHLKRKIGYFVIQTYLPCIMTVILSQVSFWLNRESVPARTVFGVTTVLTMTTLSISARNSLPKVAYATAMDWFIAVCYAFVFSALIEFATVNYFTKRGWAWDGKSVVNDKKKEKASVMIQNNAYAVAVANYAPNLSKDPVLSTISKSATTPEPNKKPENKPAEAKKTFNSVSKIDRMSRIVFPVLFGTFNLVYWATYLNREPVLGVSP
# Sequence (P28472 26-473 partner): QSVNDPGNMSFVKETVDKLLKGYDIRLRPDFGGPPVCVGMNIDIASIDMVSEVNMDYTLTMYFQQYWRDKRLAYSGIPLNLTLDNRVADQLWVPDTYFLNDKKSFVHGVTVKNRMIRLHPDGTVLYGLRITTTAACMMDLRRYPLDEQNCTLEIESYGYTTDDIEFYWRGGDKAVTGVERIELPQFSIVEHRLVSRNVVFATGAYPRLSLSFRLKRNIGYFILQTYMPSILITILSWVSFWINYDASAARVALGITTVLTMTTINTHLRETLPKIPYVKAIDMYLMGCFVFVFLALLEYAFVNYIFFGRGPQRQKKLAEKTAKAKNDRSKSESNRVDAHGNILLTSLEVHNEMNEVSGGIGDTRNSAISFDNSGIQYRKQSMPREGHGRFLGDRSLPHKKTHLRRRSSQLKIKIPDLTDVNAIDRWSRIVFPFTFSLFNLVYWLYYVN
# Sequence (P18507 40-475): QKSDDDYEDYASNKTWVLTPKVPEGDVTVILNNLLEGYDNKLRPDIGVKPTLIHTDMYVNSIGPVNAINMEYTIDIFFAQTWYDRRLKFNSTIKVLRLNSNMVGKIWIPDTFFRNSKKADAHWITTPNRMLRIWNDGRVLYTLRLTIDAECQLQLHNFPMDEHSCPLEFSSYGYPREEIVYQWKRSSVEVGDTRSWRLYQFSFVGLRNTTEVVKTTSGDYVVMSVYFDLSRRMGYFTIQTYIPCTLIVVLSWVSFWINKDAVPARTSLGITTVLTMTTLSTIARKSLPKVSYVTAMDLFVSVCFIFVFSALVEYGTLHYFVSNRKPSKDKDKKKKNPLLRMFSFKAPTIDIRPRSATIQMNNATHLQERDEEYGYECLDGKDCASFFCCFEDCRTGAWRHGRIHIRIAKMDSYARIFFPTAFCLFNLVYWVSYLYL
# assay_comment: Two-electrode voltage clamp electrophysiology in Xenopus oocytes, potentiation of GABA EC20 response, α2
# Type: cell-based
# test_context: 100 nM compound, read-out: Percentage of potentiation alpha2
The compounds listed here are annotated with their activation at 0.1 µM.

compound	activation at 0.1 µM
O=c1ccn(Cc2c(-c3ccc(Cl)cc3)nc3ccccn23)c(=O)[nH]1 [Compound 123]	10 to 50%
Cc1cc(Cl)nc(NCc2c(-c3ccc(Cl)cc3)nc3ccc(Cl)cn23)n1 [Compound 170]	10 to 50%
Cc1ccc(-c2nc3ccc(C)cn3c2CSc2nnc(C)s2)cc1 [Compound 179]	-10 to 10%
O=c1n(Cc2c(-c3ccc(Cl)cc3)nc3ccccn23)nc2ccccn12 [Compound 119]	10 to 50%
Clc1ccc(-c2nc3ccccn3c2Cc2nnc(-c3ccccn3)[nH]2)cc1 [Compound 230]	10 to 50%
CN1CC[C@@H](Oc2ccnc(NCc3c(-c4ccc(F)cc4)nc4ccc(Cl)cn34)n2)C1 [Compound 183]	≥ 50%
CNC(=O)c1nccn1Cc1c(-c2ccc(Cl)cc2)nc2cccnn12 [Compound 88]	10 to 50%
CNC(=O)c1ncnn1Cc1c(-c2ccc(Cl)cc2)nc2cccnn12 [Compound 90]	10 to 50%
Cn1c(=O)ccn(Cc2c(-c3ccc(Cl)cc3)nc3ccccn23)c1=O [Compound 125]	10 to 50%

====

# tgt: α1 subtype containing GABA-A receptors (Homo sapiens, UniProt P14867+P18507)
# Construct: expressed in transfected cells; host or cells: Xenopus laevis oocytes, cRNA injected
# Sequence (P14867 28-456, one chain of several): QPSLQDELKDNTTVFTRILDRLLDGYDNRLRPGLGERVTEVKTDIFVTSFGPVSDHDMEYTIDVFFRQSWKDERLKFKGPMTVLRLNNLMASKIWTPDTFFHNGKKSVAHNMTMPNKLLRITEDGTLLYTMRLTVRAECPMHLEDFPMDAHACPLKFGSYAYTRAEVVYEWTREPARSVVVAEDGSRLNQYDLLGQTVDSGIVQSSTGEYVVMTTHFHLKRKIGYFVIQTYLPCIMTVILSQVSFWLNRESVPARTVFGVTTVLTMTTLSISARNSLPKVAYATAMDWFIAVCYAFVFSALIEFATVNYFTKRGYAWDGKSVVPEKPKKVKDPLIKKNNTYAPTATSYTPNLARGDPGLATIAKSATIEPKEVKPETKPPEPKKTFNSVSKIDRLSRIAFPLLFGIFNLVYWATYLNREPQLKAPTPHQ
# assay_comment: Two-electrode voltage clamp electrophysiology in Xenopus oocytes, potentiation of GABA EC20 response, α1
# Assay type: cell-based
# test_context: 100 nM compound, read-out: Percentage of potentiation alpha1

compound	activation at 0.1 µM
O=C1CCN1Cc1c(-c2ccccc2)nc2ccc(Cl)cn12	10 to 50%
CN1CCN(C2=CC(=O)N(Cc3c(-c4ccc(Cl)cc4)nc4ccccn34)C2)CC1	10 to 50%
CN1CC[C@@H](Oc2ccnc(NCc3c(-c4ccc(F)cc4)nc4ccc(Cl)cn34)n2)C1	≥ 50%
Cc1cccn(Cc2c(-c3ccc(Cl)cc3)nc3ccc(F)cn23)c1=O	≥ 50%
Cc1ccc(-c2nc3ccc(C)cn3c2CNc2nccnn2)cc1	≥ 50%
CNc1ccn(Cc2c(-c3ccc(Cl)cc3)nc3ccccn23)c(=O)n1	10 to 50%
NNC(=O)c1nc(Cc2c(-c3ccc(Cl)cc3)nc3ccc(F)cn23)no1	10 to 50%
Cc1cccc(=O)n1Cc1c(-c2ccc(Cl)cc2)nc2ccc(F)cn12	≥ 50%
Nc1ccn(Cc2c(-c3ccc(Cl)cc3)nc3ccccn23)c(=O)n1	10 to 50%
OC1CCN(c2cncc(Cc3c(-c4ccc(Cl)cc4)nc4ccccn34)n2)C1 (stereo not drawn)	10 to 50%
CNC(=O)c1nccn1Cc1c(-c2ccc(Cl)cc2)nc2cccnn12	-10 to 10%
NC(=O)c1ncn(Cc2c(-c3ccc(Cl)cc3)nc3ccccn23)n1	10 to 50%
O=c1c2ccccc2[nH]n1Cc1c(-c2ccc(Cl)cc2)nc2ccccn12	10 to 50%
O=c1nc(N2CCCC2)ccn1Cc1c(-c2ccc(Cl)cc2)nc2ccccn12	10 to 50%
Clc1ccc(-c2nc3ccccn3c2Cc2nnc(-c3ccccn3)[nH]2)cc1	10 to 50%
Clc1ccc(-c2nc3ccccn3c2Cc2ncn[nH]2)cc1	10 to 50%
CN1CC[C@H](Oc2ccnc(NCc3c(-c4ccc(F)cc4)nc4ccc(Cl)cn34)n2)C1	10 to 50%
CN(C)CCNc1cc(Cc2c(-c3ccc(Cl)cc3)nc3ccccn23)ncn1	10 to 50%
O=C(NO)c1nc(Cc2c(-c3ccc(Cl)cc3)nc3ccc(F)cn23)no1	-10 to 10%
Cc1cc(Cl)nc(NCc2c(-c3ccc(Cl)cc3)nc3ccccn23)n1	10 to 50%
Cn1c(=O)ccn(Cc2c(-c3ccc(Cl)cc3)nc3ccccn23)c1=O	-10 to 10%
CNC(=O)c1ncnn1Cc1c(-c2ccc(Cl)cc2)nc2cccnn12	10 to 50%
NNC(=O)c1nc(Cc2c(-c3ccc(Cl)cc3)nc3ccccn23)no1	-10 to 10%
CNC(=O)c1ncnn1Cc1c(-c2ccc(Cl)cc2)nc2ccc(Cl)cn12	10 to 50%
Cc1nnc(Cc2c(-c3ccccc3)nc3ccc(Cl)cn23)[nH]1	10 to 50%
CNC(=O)c1ncn(Cc2c(-c3ccc(Cl)cc3)nc3ccccn23)n1	10 to 50%
CCOC(=O)c1cc(C)n(Cc2c(-c3ccc(Cl)cc3)nc3ccccn23)n1	≥ 50%
O=C1C=C(N2CCC(O)C2)CN1Cc1c(-c2ccc(Cl)cc2)nc2ccccn12 (stereo not drawn)	≥ 50%
O=c1nc(-n2cncn2)ccn1Cc1c(-c2ccc(Cl)cc2)nc2ccccn12	10 to 50%
Cc1cc(Cl)nc(NCc2c(-c3ccc(F)cc3)nc3ccc(Cl)cn23)n1	10 to 50%
Cc1nnc(Cc2c(-c3ccccc3)nc3ccc(Cl)cn23)o1	-10 to 10%
Cc1ccc2nc(-c3ccc(F)cc3)c(CNc3nc(C)cc(Cl)n3)n2c1	10 to 50%
COc1ccc(NCc2c(-c3ccccc3)nc3ccc(Cl)cn23)nn1	10 to 50%
Cn1ccnc1Cc1c(-c2ccc(Cl)cc2)nc2ccccn12	≥ 50%
Cc1ccc(-c2nc3ccc(C)cn3c2CNc2nc(C)cc(Cl)n2)cc1	≥ 50%
Clc1ccc(-c2nc3ccc(Cl)cn3c2Cc2cn[nH]n2)cc1	≥ 50%

====

# System: Swiss Webster (CFW) mice
# assay_comment: Four Plate Test (FPT)
# Type: in vivo
# test_context: mouse, 10 mg/kg PO, 30 min before test, 2 min session
endpoint: Number of Punished Crossings Mean ± S.E.M.

entry_smiles	number
Cn1ncnc1Cc1c(-c2ccc(F)cc2)nc2ccc(F)cn12	8.6
Fc1ccc(-c2nc3ccc(F)cn3c2Cn2nccn2)cc1	6.3
CNC(=O)c1nccn1Cc1c(-c2ccc(Cl)cc2)nc2ccccn12	4.6
NC(=O)c1ncn(Cc2c(-c3ccc(Cl)cc3)nc3ccccn23)n1	5.2
Clc1ccc(-c2nc3cccnn3c2Cn2cncn2)cc1	6.6

====

A collection of compounds and their measured activation at 0.1 µM
# tgt: α2 subtype containing GABA-A receptors (Homo sapiens, UniProt P18507+P47869)
# Construct: expressed in transfected cells; host or cells: Xenopus laevis oocytes, cRNA injected
# assay_comment: Two-electrode voltage clamp electrophysiology in Xenopus oocytes, potentiation of GABA EC20 response, α2
# Format: cell-based
# test_context: 100 nM compound, read-out: Percentage of potentiation alpha2

compound	activation at 0.1 µM
CN(C)CCNC1=CC(=O)N(Cc2c(-c3ccc(Cl)cc3)nc3ccccn23)C1	10 to 50%
CC1(O)CCN(c2ccnc(NCc3c(-c4ccccc4)nc4ccc(Cl)cn34)n2)CC1	-10 to 10%
CNc1ccn(Cc2c(-c3ccc(Cl)cc3)nc3ccccn23)c(=O)n1	≥ 50%
NNC(=O)c1nc(Cc2c(-c3ccc(Cl)cc3)nc3ccccn23)no1	10 to 50%
CNC(=O)c1ncnn1Cc1c(-c2ccc(Cl)cc2)nc2ccc(Cl)cn12	10 to 50%
NC(=O)c1nc(Cc2c(-c3ccc(Cl)cc3)nc3ccc(F)cn23)no1	≥ 50%
Fc1ccc(-c2nc3ccc(Cl)cn3c2CNc2nccc(C3CCCN3)n2)cc1 (stereo not drawn)	≥ 50%
Clc1ccc(-c2nc3cccnn3c2Cn2cncn2)cc1	10 to 50%
NNC(=O)c1nc(Cc2c(-c3ccc(Cl)cc3)nc3ccc(F)cn23)no1	≥ 50%

====

Catalogue of activation at 0.1 µM values
# tgt: α1 subtype containing GABA-A receptors (Homo sapiens, UniProt P14867+P18507)
# Construct: expressed in transfected cells; host or cells: Xenopus laevis oocytes, cRNA injected
# assay_comment: Two-electrode voltage clamp electrophysiology in Xenopus oocytes, potentiation of GABA EC20 response, α1
# Type: cell-based
# test_context: 100 nM compound, read-out: Percentage of potentiation alpha1

compound	activation at 0.1 µM
CCOc1ccn(Cc2c(-c3ccc(Cl)cc3)nc3ccccn23)c(=O)n1 [Compound 137]	10 to 50%
CC1(O)CCN(c2ccnc(NCc3c(-c4ccccc4)nc4ccc(Cl)cn34)n2)CC1 [Compound 187]	≤ -10%
COC(=O)c1ncn(Cc2c(-c3ccc(Cl)cc3)nc3ccccn23)n1 [Compound 25]	10 to 50%
Fc1ccc(-c2nc3ccc(Cl)cn3c2CNc2nccc(C3CCCN3)n2)cc1 (stereo not drawn) [Compound 195]	≥ 50%
Cc1nnc(Cc2c(-c3ccc(Cl)cc3)nc3ccccn23)o1 [Compound 204]	-10 to 10%
O=c1[nH]c(=O)n(Cc2c(-c3ccc(Cl)cc3)nc3ccccn23)cc1F [Compound 127]	-10 to 10%
Cc1cc(Cl)nc(NCc2c(-c3ccc(Cl)cc3)nc3ccc(Cl)cn23)n1 [Compound 170]	10 to 50%
CC(C)OC(=O)c1ncnn1Cc1c(-c2ccc(Cl)cc2)nc2ccc(Cl)cn12 [Compound 23]	10 to 50%
CNNc1cncc(Cc2c(-c3ccc(Cl)cc3)nc3ccccn23)n1 [Compound 193]	10 to 50%
